B1: library; numbered along this chain (parent)
chain: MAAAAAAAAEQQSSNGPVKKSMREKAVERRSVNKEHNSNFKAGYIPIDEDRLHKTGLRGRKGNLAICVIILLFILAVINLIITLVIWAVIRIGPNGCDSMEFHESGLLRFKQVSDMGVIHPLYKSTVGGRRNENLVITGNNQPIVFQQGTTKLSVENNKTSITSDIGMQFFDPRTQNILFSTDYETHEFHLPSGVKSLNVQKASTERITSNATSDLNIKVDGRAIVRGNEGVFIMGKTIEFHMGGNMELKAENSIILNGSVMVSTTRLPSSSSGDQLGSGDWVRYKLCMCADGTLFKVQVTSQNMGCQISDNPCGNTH

- Variants of: B1
- Assay Protocol: SGCB cell-surface expression functional score (HA stain, bin4 vs bin1, normalised to synonymous) (log10 ratio); higher = more cell-surface SGCB (functional)
What SGCB cell-surface expression functional score (log10) was measured for each of the following?
Answers are plain numbers.

// known answers, use as guide
Sequence Change	Measurement
I47E	0.72
T266S	0.4
I70S	0.36

Would you be so kind as to report SGCB cell-surface expression functional score (log10) for each listed record?
1. V263S
2. I86T
3. R131Q
4. Y44L
5. L64R
6. G59C

### Response
[-0.39, -0.15, -0.6, 0.55, 0.07, 0.05]

Quick request: SGCB cell-surface expression functional score (log10) for each listed item, please.
1. N63Q
2. V298I
3. A4Q
4. K111M
5. S302Q
6. V127T

### Response
1. 0.11
2. 0.1
3. -0.48
4. -0.31
5. -1.84
6. -0.96

Provide the reported SGCB cell-surface expression functional score (log10) of each entry below, same order.
1. N316F
2. N253I
3. M100N
4. K19G
5. R227H
6. K286F

### Response
[0.15, 0, -2.37, 0.02, 0.55, -0.07]

For each of the variants below, note its SGCB cell-surface expression functional score (log10).
1. R58F
2. H36W
3. R51F
4. G306E
5. N211Q
6. T266C

### Response
0.09
-0.09
0.49
-0.55
-0.03
1.12

Recorded values, source the supplement of paper PMC10266784.
